Test: label from the status in PepcDB records
recorded-endpoint: protein production

MQFIKNLQLNKKKDSDSSEQVLTNKKNKMKYEDFNFIRTLGTGSFGRVILATYKNGNYPPVAIKRFEKCKIIRQKQVDHVFSERKILNYINHPFCVNLHGSFKDDSYLYLVLEFVIGGEFFTFLRRNKRFPNDVGCFYAAQIVLIFEYLQSLNIVYRDLKPENLLLDKDGFIKMTDFGFAKIVETRTYTLCGTPEYIAPEILLNVGHGKAADWWTLGIFIYEILVGCPPFYANEPLLIYQKILEGIIYFPKFLDNNCKHLMKKLLSHDLTKRYGNLKKGAQNVKEHPWFSNIDWVNLLNKNVEVPYKPKYKNIFDSSNFERVQEDLTIADKITNENDPFYDW; failed
PLAGTITEADVRRYAASCCVQGVTTITDLHNDLADPTIEVYRSATSQADFGVRLVPALAAVSHTPEQAIAKLETLRGHASDKLHYGIVKLVVDGSIQGFTARLRWPGYHNGAANGLWYIAPEELPRLVEAYHRAGVQLHIHTNGDEATEVALDAIEAAQTVAPRPDHRHTLQHCQMASAAQFRRMKNLGVCANLFANHLYYWGDAHYELTMGPERAARLDATGTAQRIGVPFAIHSDAPVTPLAPLFTAWCAVNRVSSSGRVLGRDTEALTTEQALAAITIGAAYTLKMDHLVGSIETGKYADFVVLDEDPLAVPPERLKEIAVWGTVVGG; failed
